experimental_target: Dihydrofolate reductase (Staphylococcus aureus, UniProt P0A017)
Sequence (P0A017 whole entry): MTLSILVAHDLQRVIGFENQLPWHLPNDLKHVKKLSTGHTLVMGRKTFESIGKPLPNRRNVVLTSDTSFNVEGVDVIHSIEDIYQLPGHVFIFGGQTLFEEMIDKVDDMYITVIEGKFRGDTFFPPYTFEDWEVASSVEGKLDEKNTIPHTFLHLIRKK
assay_info: Inhibition of Staphylococcus aureus DHFR assessed as oxidation of NADPH using dihydrofolate as substrate pre-incubated for 10 mins before substrate addition by spectrophotometry
pKi: −log10 of the molar value.
In this section we review reported pKi values for a set of compounds.

{"smiles_record": "Cc1cc2c(N)nc(N)nc2cc1-c1ccc(S(C)(=O)=O)cc1", "pKi": 8.92}
{"smiles_record": "Cc1cc2c(N)nc(N)nc2cc1-c1ccccc1C(C)C", "pKi": 9.89}
{"smiles_record": "CCOc1ccc2[nH]ccc2c1-c1cc2nc(N)nc(N)c2cc1C", "pKi": 9.21}
{"smiles_record": "CCOc1ccc(Cl)cc1-c1cc2nc(N)nc(N)c2cc1C", "pKi": 9.42}
{"smiles_record": "CCOc1ccc(C=O)cc1-c1cc2nc(N)nc(N)c2cc1C", "pKi": 9.62}
{"smiles_record": "Nc1nc(N)c2ccc(-c3ccccc3)cc2n1", "pKi": 8.04}
{"smiles_record": "Cc1ccccc1-c1cc2nc(N)nc(N)c2cc1C", "pKi": 9.11}
{"smiles_record": "CCOc1ccc(C)cc1-c1cc2nc(N)nc(N)c2cc1C", "pKi": 9.07}
{"smiles_record": "COc1ccc(-c2cc3nc(N)nc(N)c3cc2C)cc1OC", "pKi": 9.46}

* * *

In this section we review reported MIC values for a set of molecules.
System: Haemophilus influenzae
assay_info: Antibacterial activity against ampicillin-resistant Haemophilus influenzae ATCC 49247 by CLSI microdilution method
Assay type: functional

{"smiles_record": "CCOc1ccc(C(=O)N(CC)CC)cc1-c1cc2nc(N)nc(N)c2cc1C", "MIC [µg/mL]": 64}
{"smiles_record": "CCOc1ccc2ccccc2c1-c1cc2nc(N)nc(N)c2cc1C", "MIC [µg/mL]": 16}
{"smiles_record": "CCOc1ccc(Br)cc1-c1cc2nc(N)nc(N)c2cc1C", "MIC [µg/mL]": 32}
{"smiles_record": "CCOc1ccc2[nH]ccc2c1-c1cc2nc(N)nc(N)c2cc1C", "MIC [µg/mL]": 16}
{"smiles_record": "Nc1ccc(-c2ccc3c(N)nc(N)nc3c2)cc1", "MIC [µg/mL]": 4}
{"smiles_record": "CCOc1ccc(-c2cccnc2)cc1-c1ccc2c(N)nc(N)nc2c1", "MIC [µg/mL]": 16}

* * *

experimental_target: Dihydrofolate reductase (Homo sapiens, UniProt P00374)
Sequence (P00374 whole entry): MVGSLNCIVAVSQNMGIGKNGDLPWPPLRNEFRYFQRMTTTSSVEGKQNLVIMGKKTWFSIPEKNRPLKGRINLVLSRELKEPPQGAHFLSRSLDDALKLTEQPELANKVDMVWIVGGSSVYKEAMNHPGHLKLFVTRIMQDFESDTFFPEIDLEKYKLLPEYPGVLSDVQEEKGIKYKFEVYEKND
pKi: −log10 of the molar value.
In this section we review reported pKi values for a set of compounds.

{"smiles_record": "CCOc1ccc2[nH]ccc2c1-c1cc2nc(N)nc(N)c2cc1C", "pKi": 6.61}
{"smiles_record": "CCOc1ccc(C)cc1-c1cc2nc(N)nc(N)c2cc1C", "pKi": 7.65}
{"smiles_record": "Cc1cc2c(N)nc(N)nc2cc1-c1ccc(S(C)(=O)=O)cc1", "pKi": 7.36}
{"smiles_record": "CCOc1ccc(-c2cccnc2)cc1-c1ccc2c(N)nc(N)nc2c1", "pKi": 8.00}
{"smiles_record": "Cc1cc2c(N)nc(N)nc2cc1-c1ccccc1", "pKi": 6.89}
{"smiles_record": "CCOc1ccc(Cl)cc1-c1cc2nc(N)nc(N)c2cc1C", "pKi": 7.95}
{"smiles_record": "CCOc1ccccc1-c1ccc2c(N)nc(N)nc2c1", "pKi": 7.07}
{"smiles_record": "CS(=O)(=O)c1ccc(-c2ccc3c(N)nc(N)nc3c2)cc1", "pKi": 6.60}
{"smiles_record": "Cc1cc2c(N)nc(N)nc2cc1-c1ccccc1C(C)C", "pKi": 7.68}

* * *

In this section we review reported Ki values for a set of compounds.
Target sequence: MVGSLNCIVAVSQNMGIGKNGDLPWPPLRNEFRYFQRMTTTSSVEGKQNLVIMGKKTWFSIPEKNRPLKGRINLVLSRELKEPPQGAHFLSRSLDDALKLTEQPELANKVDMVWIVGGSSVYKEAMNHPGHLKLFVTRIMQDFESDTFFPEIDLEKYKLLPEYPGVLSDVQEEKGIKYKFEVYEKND

{"smiles_record": "CCOc1ccc(C=O)cc1-c1cc2nc(N)nc(N)c2cc1C", "Ki / nM": 12}
{"smiles_record": "COc1ccc(-c2cc3nc(N)nc(N)c3cc2C)cc1OC", "Ki / nM": 12.2}
{"smiles_record": "CCc1ccccc1-c1cc2nc(N)nc(N)c2cc1C", "Ki / nM": 41.1}
{"smiles_record": "Cc1ccccc1-c1cc2nc(N)nc(N)c2cc1C", "Ki / nM": 95.6}
{"smiles_record": "CCOc1ccc(Br)cc1-c1cc2nc(N)nc(N)c2cc1C", "Ki / nM": 11.1}
{"smiles_record": "Nc1nc(N)c2ccc(-c3ccccc3)cc2n1", "Ki / nM": 743}

* * *

In this section we review reported MIC values for a set of molecules.
Tested on: Staphylococcus aureus
assay_info: Antibacterial activity against Staphylococcus aureus Smith ATCC 13709 by CLSI microdilution method
Assay type: functional

{"smiles_record": "CC(=O)c1cccc(-c2ccc3c(N)nc(N)nc3c2)c1", "MIC [µg/mL]": 4}
{"smiles_record": "CCOc1ccc(-c2cccnc2)cc1-c1ccc2c(N)nc(N)nc2c1", "MIC [µg/mL]": 0.5}
{"smiles_record": "CCOc1ccc(C(=O)N(CC)CC)cc1-c1cc2nc(N)nc(N)c2cc1C", "MIC [µg/mL]": 0.5}

* * *

In this section we review reported MIC values for a set of molecules.
Tested on: Haemophilus influenzae
assay_info: Antibacterial activity against ampicillin-resistant Haemophilus influenzae ATCC 49247 by CLSI microdilution method
Assay type: functional
readout_kind: MIC (µg/mL)

{"molecule": "CCOc1ccc(Cl)cc1-c1cc2nc(N)nc(N)c2cc1C", "experimental_target": "Haemophilus influenzae", "val": 8}
{"molecule": "CCc1ccccc1-c1cc2nc(N)nc(N)c2cc1C", "experimental_target": "Haemophilus influenzae", "val": 8}
{"molecule": "Nc1nc(N)c2ccc(-c3ccccc3)cc2n1", "experimental_target": "Haemophilus influenzae", "val": 16}
{"molecule": "Cc1cc2c(N)nc(N)nc2cc1-c1ccccc1", "experimental_target": "Haemophilus influenzae", "val": 2}
{"molecule": "CCOc1ccc(C)cc1-c1cc2nc(N)nc(N)c2cc1C", "experimental_target": "Haemophilus influenzae", "val": 16}
{"molecule": "COc1ccccc1-c1ccc2c(N)nc(N)nc2c1", "experimental_target": "Haemophilus influenzae", "val": 16}
{"molecule": "CC(=O)c1cccc(-c2ccc3c(N)nc(N)nc3c2)c1", "experimental_target": "Haemophilus influenzae", "val": 64}
{"molecule": "CC(=O)c1cccc(-c2cc3nc(N)nc(N)c3cc2C)c1", "experimental_target": "Haemophilus influenzae", "val": 1}
{"molecule": "COc1ccc(-c2cc3nc(N)nc(N)c3cc2C)cc1OC", "experimental_target": "Haemophilus influenzae", "val": 4}
{"molecule": "COc1cc(Cc2cnc(N)nc2N)c2c(c1OC)OC(C1CC1)C=C2 (configuration not stated)", "experimental_target": "Haemophilus influenzae", "val": 1}
{"molecule": "CCOc1ccccc1-c1ccc2c(N)nc(N)nc2c1", "experimental_target": "Haemophilus influenzae", "val": 16}
{"molecule": "COc1ccc(OC)c(-c2cc3nc(N)nc(N)c3cc2C)c1", "experimental_target": "Haemophilus influenzae", "val": 8}

* * *

System: Staphylococcus aureus
assay_info: Antibacterial activity against Staphylococcus aureus Smith ATCC 13709 by CLSI microdilution method
Assay type: functional

{"smiles_record": "Cc1cc2c(N)nc(N)nc2cc1-c1ccccc1C(C)C", "readout_units": "µg/mL", "MIC": 0.25}
{"smiles_record": "CCOc1ccc2[nH]ccc2c1-c1cc2nc(N)nc(N)c2cc1C", "readout_units": "µg/mL", "MIC": 0.25}
{"smiles_record": "CCOc1ccc(-c2cccc(NS(C)(=O)=O)c2)cc1-c1ccc2c(N)nc(N)nc2c1", "readout_units": "µg/mL", "MIC": 0.5}
{"smiles_record": "CCOc1ccc(C=O)cc1-c1cc2nc(N)nc(N)c2cc1C", "readout_units": "µg/mL", "MIC": 1}
{"smiles_record": "COc1ccc(-c2cc3nc(N)nc(N)c3cc2C)cc1OC", "readout_units": "µg/mL", "MIC": 0.5}
{"smiles_record": "Nc1ccc(-c2ccc3c(N)nc(N)nc3c2)cc1", "readout_units": "µg/mL", "MIC": 4}
{"smiles_record": "Cc1cc2c(N)nc(N)nc2cc1-c1ccc(S(C)(=O)=O)cc1", "readout_units": "µg/mL", "MIC": 2}
{"smiles_record": "CCOc1ccc2ccccc2c1-c1cc2nc(N)nc(N)c2cc1C", "readout_units": "µg/mL", "MIC": 0.125}
{"smiles_record": "CCc1ccccc1-c1cc2nc(N)nc(N)c2cc1C", "readout_units": "µg/mL", "MIC": 0.25}
{"smiles_record": "CCOc1ccc(C)cc1-c1cc2nc(N)nc(N)c2cc1C", "readout_units": "µg/mL", "MIC": 1}
{"smiles_record": "CC(=O)c1cccc(-c2cc3nc(N)nc(N)c3cc2C)c1", "readout_units": "µg/mL", "MIC": 0.5}
